# Assayed Target: Botulinum toxin type A endopeptidase (BoNT/A-LC) (Clostridium botulinum, UniProt P0DPI0)
# Sequence (P0DPI0 2-448 limits assumed): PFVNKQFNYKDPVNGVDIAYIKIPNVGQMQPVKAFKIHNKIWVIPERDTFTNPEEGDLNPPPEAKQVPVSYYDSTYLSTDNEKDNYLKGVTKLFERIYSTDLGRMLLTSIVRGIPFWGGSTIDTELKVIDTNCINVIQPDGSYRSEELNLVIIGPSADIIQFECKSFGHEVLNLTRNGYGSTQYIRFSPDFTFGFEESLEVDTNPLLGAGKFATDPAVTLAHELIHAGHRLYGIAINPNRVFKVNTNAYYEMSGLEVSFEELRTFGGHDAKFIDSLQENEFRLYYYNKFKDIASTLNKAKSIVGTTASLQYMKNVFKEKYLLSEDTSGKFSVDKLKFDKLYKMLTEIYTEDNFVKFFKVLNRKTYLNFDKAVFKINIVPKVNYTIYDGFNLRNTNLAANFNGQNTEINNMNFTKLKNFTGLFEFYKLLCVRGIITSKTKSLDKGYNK
# Format: biochemical
Field: Inhibition rate %. Provide a value for each of the compounds that follow.
Please reply with the bare figure in % and do not write the unit itself.

(Q) So what does the record say about Inhibition rate % for O=C(CS(=O)(=O)c1ncccc1C(=O)O)Nc1cc(Cl)ccc1Oc1ccccc1 ?
(A) 5

(Q) Try this compound too: COc1ccc(Cl)cc1NC(=O)CS(=O)(=O)c1cc(C(=O)O)ccn1
(A) 10

(Q) Try this compound too: COc1ccc(Cl)cc1NC(=O)C[S+]([O-])c1ncccc1C(=O)O (stereo not shown)
(A) 60.0

(Q) Try this compound too: COc1ccc(Cl)cc1NC(=O)COc1ncccc1C(=O)O
(A) 0

----------
# System: Botulinum toxin type A (BoNT/A)
# Parameters: species or system Balb/c mice
# Cond: mouse, in vivo
Property: Survival rate % (%)
Please reply with the bare figure in % and do not write the unit itself.

(Q) So what does the record say about Survival rate % for COc1ccc(Cl)cc1NC(=O)C[S+]([O-])c1ncccc1C(=O)O (stereo not shown) ?
(A) 100

(Q) Try this compound too: O=C(CS(=O)(=O)c1ncccc1C(=O)O)Nc1cc(Cl)ccc1Oc1ccccc1
(A) 0

(Q) Try this compound too: COc1ccc(Cl)cc1NC(=O)CS(=O)(=O)c1cc(C(=O)O)ccn1
(A) 0

(Q) Try this compound too: COc1ccc(Cl)cc1NC(=O)COc1ncccc1C(=O)O
(A) 60

----------
# Assayed Target: Botulinum toxin type B endopeptidase (BoNT/B-LC) (Clostridium botulinum, UniProt P10844)
# Sequence (P10844 2-441 limits assumed): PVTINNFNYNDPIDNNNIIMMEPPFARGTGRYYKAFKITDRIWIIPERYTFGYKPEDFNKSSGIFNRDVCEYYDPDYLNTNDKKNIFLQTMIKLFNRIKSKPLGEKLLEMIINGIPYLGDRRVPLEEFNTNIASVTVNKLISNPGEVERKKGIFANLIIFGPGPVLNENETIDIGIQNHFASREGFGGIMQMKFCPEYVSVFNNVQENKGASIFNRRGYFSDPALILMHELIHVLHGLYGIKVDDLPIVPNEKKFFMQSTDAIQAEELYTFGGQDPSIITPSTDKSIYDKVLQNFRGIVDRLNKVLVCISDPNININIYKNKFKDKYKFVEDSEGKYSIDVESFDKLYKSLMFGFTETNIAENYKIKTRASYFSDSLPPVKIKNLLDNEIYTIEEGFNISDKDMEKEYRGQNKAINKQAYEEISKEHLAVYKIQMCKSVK
# Assay type: biochemical
Field: Inhibition rate %. Provide a value for each of the compounds that follow.
Please reply with the bare figure in % and do not write the unit itself.

(Q) So what does the record say about Inhibition rate % for O=C(CS(=O)(=O)c1ncccc1C(=O)O)Nc1cc(Cl)ccc1Oc1ccccc1 [Compound 2b] ?
(A) 0

(Q) Try this compound too: COc1ccc(Cl)cc1NC(=O)COc1ncccc1C(=O)O [Compound 6a]
(A) 80

(Q) Try this compound too: COc1ccc(Cl)cc1NC(=O)C[S+]([O-])c1ncccc1C(=O)O (stereo not shown) [Compound 2c]
(A) 35

(Q) Try this compound too: COc1ccc(Cl)cc1NC(=O)CS(=O)(=O)c1cc(C(=O)O)ccn1 [Compound 2a]
(A) 0
